- procedure-text: CCTE_Shafer_MEA_dev_per_burst_spike_percent: CCTE's Neural Network Formation Assay for Percent of Spikes in a Burst, Shafer Lab (AID 2284032)
- Experimental: CCTE_Shafer_MEA_dev assay is conducted using Axion Biosystems 48 well microelectrode array (MEA) plates and Maestro recording system. Each well of the MEA plate contains a grid of 16 microelectrodes embedded in the culture surface. Electrically active cells, such as neurons, can be cultured over the electrodes, and electrical activity in these cells can be recorded extracellularly. […]
Activity calls are given as the source filed them. Rule for the calls: active = hit-call score of the fitted dose curve at least 0.9, where 1 is the maximum; inactive = score below 0.9.
quantity: outcome

> print(dat)
                                   compound  quantity       val
1  CN(C)CCOC(C)(c1ccccc1)c1ccccn1 (centres undefined)   outcome  inactive
2                CS(=O)(=O)OCCCCOS(C)(=O)=O   outcome  inactive
3  COCCc1ccc(OCC(O)CNC(C)C)cc1 (centres undefined)   outcome  inactive
4                               COCCOCCOCCO   outcome  inactive
